Target: HDAC2 (Homo sapiens, UniProt Q92769)
Construct: purchased Reaction Biology Corporation (assay run by the CRO)
Sequence (Q92769 whole entry): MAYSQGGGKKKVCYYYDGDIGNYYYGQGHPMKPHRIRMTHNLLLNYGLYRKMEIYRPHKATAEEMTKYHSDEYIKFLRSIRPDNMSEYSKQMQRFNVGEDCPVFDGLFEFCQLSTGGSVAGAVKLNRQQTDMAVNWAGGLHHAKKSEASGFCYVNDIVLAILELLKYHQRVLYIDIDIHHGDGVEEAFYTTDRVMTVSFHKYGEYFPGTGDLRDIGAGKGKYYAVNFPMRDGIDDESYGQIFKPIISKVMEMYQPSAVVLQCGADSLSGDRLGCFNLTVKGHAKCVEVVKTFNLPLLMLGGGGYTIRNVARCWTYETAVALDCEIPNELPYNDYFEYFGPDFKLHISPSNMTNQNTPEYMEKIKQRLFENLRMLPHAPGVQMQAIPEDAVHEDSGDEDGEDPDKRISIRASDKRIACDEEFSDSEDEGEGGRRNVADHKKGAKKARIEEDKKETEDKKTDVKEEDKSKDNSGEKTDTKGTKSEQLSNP
Experiment: HDAC2 inhibition, full IC50 measurement (Reaction Biology; fluorogenic p53 peptide RHKK(Ac)AMC)
Assay type: biochemical
Settings: Conc. 5.08E-10 M, t2
Peptide text beside a SMILES is read from it.
readout_label: HDAC2 activity raw data (signal)

compound	reported_measurement
C[C@H](O)[C@H]1NC(=O)[C@H](Cc2c[nH]c3ccccc23)NC(=O)[C@H](CCCCCS)NC(=O)[C@H](CCCCN)NC(=O)[C@@H](CC(=O)O)NC(=O)[C@@H](CCCCN)NC(=O)[C@@H](CO)NC(=O)[C@H](CC(N)=O)NC(=O)[C@H](CC(=O)O)NC1=O [des2.1.0, SHA-Trp-dThr-Asp-Asn-dSer-dLys-dAsp-Lys] (HELM PEPTIDE1{D.N.[dS].[dK].[dD].K.[O=C([C@H](CCCCCS)N[*:1])[*:2]].W.[dT]}$PEPTIDE1,PEPTIDE1,1:R1-9:R2$$$V2.0)	990162
